Collected pIC50 values appear next to each entry.
- study_target: human glucocorticoid receptor (GR) complex (Homo sapiens)
- Construct: made in house; host or cells: insect expression system (baculovirus lysate)
- measurement_notes: Glucocorticoid receptor competitive binding assay (fluorescence polarization)
- assay_setup: competition with TAMRA-labeled dexamethasone
pIC50: −log10 of the molar value.

| compound | pIC50 |
| --- | --- |
| CC(C)(CC(O)(Cc1cc(C(F)(F)F)cc(Cl)c1F)C(F)(F)F)c1ccccc1 (stereo not shown) | ≥ 7.00 |
| CC(C)(CC(O)(Cc1ccc(C#N)cc1)C(F)(F)F)c1cc(F)ccc1O (stereo not shown) | ≥ 7.00 |
| CC(C)(CC(O)(Cc1cc(C(F)(F)F)cc(Cl)c1F)C(F)(F)F)c1cccc2c1OCC2 (stereo not shown) | ≥ 7.00 |
| CC(C)(CC(O)(Cc1ccc(C#N)cc1Cl)C(F)(F)F)c1cccc2c1OCC2 (stereo not shown) | ≥ 7.00 |
| COc1ccc(F)cc1C(C)(C)CC(O)(Cc1cc(Cl)cc(Cl)c1Cl)C(F)(F)F (stereo not shown) | ≥ 7.00 |
| CC(C)(CC(O)(Cc1ccccc1)C(F)(F)F)c1ccccc1 (stereo not shown) | ≥ 7.00 |
| COc1ccc(F)cc1C(C)(C)CC(O)(Cc1ccc(C=O)cc1)C(F)(F)F (stereo not shown) | ≥ 7.00 |
| COc1ccc(F)cc1C(C)(C)CC(O)(Cc1ccccc1Cl)C(F)(F)F (stereo not shown) | ≥ 7.00 |
| COc1ccc(F)cc1C(C)(C)CC(O)(Cc1ccc(Cl)c(C(F)(F)F)c1)C(F)(F)F (stereo not shown) | ≥ 7.00 |
| CC(C)(CC(O)(Cc1ccc(F)c(F)c1)C(F)(F)F)c1cc(F)ccc1O (stereo not shown) | ≥ 7.00 |

====

- study_target: human glucocorticoid receptor (GR) complex (Homo sapiens)
- Construct: made in house; host or cells: insect expression system (baculovirus lysate)
- Sequence (P04150 1-777): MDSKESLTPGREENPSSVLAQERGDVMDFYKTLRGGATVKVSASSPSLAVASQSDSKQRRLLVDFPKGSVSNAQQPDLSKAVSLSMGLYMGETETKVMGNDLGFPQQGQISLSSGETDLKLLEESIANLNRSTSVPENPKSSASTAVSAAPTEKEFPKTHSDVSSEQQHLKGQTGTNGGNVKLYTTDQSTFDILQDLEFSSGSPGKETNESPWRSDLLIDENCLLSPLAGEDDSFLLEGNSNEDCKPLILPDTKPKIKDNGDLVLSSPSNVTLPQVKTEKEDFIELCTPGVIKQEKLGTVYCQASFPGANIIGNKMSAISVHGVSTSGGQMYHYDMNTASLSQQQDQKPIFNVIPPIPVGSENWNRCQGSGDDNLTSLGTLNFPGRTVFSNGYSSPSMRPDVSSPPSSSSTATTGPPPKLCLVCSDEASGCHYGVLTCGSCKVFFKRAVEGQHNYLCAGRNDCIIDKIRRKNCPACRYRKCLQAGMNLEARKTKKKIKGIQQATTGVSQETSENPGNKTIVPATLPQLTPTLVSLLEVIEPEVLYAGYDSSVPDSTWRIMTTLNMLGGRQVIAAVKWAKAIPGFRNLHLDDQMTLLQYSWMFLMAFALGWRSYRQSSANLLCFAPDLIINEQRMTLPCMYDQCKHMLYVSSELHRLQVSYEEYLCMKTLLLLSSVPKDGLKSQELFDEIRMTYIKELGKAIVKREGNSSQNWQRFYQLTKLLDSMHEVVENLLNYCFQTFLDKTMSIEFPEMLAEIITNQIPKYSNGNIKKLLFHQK
- measurement_notes: Glucocorticoid receptor competitive binding assay (fluorescence polarization)
- assay_setup: competition with TAMRA-labeled dexamethasone
pIC50: −log10 of the molar value.
readout_name: pIC50

| compound | readout_name | reported_value |
| --- | --- | --- |
| COc1ccc(F)cc1C(C)(C)CC(O)(Cc1cc(Cl)ccc1F)C(F)(F)F (stereo not shown) | pIC50 | ≥ 7.00 |
| COc1ccc(F)cc1C(C)(C)CC(O)(Cc1cc(F)cc(F)c1F)C(F)(F)F (stereo not shown) | pIC50 | ≥ 7.00 |
| CC(C)(CC(O)(Cc1ccc(Cl)c(Cl)c1)C(F)(F)F)c1cc(F)ccc1O (stereo not shown) | pIC50 | ≥ 7.00 |
| COc1ccc(F)cc1C(C)(C)CC(O)(Cc1cccc(C#N)c1)C(F)(F)F (stereo not shown) | pIC50 | ≥ 7.00 |
| Cc1cc(C)cc(CC(O)(CC(C)(C)c2cccc3c2OCC3)C(F)(F)F)c1 (stereo not shown) | pIC50 | ≥ 7.00 |
| COc1ccc(F)cc1C(C)(C)CC(O)(Cc1c(C)ccc2ccccc12)C(F)(F)F (stereo not shown) | pIC50 | ≥ 7.00 |
| Cc1cc(Cl)cc(CC(O)(CC(C)(C)c2cc(F)ccc2O)C(F)(F)F)c1 (stereo not shown) | pIC50 | ≥ 7.00 |
| COc1ccc(F)cc1C(C)(C)CC(O)(Cc1cc(Cl)ccc1Cl)C(F)(F)F (stereo not shown) | pIC50 | ≥ 7.00 |
| COc1ccc(F)cc1C(C)(C)CC(O)(Cc1ccc(C#N)cc1)C(F)(F)F (stereo not shown) | pIC50 | ≥ 7.00 |
| COc1ccc(F)cc1C(C)(C)CC(O)(Cc1cc(C(F)(F)F)ccc1F)C(F)(F)F (stereo not shown) | pIC50 | ≥ 7.00 |

The measurements presented in this section are drawn from patent US7268152B2.
